These measurements were taken from PubChem BioAssay (NCATS).

Test system: Zika virus NS2B-NS3 protease (linked construct)
Assay info: Primary screen NINDS Rhodamine qHTS for Zika virus inhibitors (AID 1347160); also: % is scaled to controls: 0 for no effect and ±100 for the full control effect; nearly all actives have a fitted effect of over 55% in size
Condition description: purified NS2B-NS3 protease, Rhodamine110 substrate fluorescence; series mostly up to 57.1 µM
Records with an inconclusive call do not appear. Active and inactive are the calls of the source. Calls follow the shape of the dose curve; as a rule, active = well fitted inhibition curve with a large enough effect; inconclusive = small, poorly fitted or top-dose-only effect; inactive = no such curve, though single readings can be large or run the other way.
Property label: outcome

Observe how each entry below is paired with its result.
{"Compound": "COc1cccc(-c2cn(-c3ccc(CCN4CCC(O)CC4)cc3)c3ncnc(N)c23)c1", "Result": "inactive"}
{"Compound": "Cn1cc(-c2ccc3c(c2)CCN3C(=O)Cc2cccc(C(F)(F)F)c2)c2c(N)ncnc21", "Result": "inactive"}
{"Compound": "O=C(NCc1ccccc1)c1ccc2c(=O)n(-c3cccc(C(F)(F)F)c3)c(=S)[nH]c2c1", "Result": "inactive"}
{"Compound": "O=C(NCC1(N2CCN(c3ccccc3)CC2)CCOCC1)c1cccnc1Sc1ccccc1", "Result": "inactive"}

Ask: Could you share which outcome value was measured for `CCCCOC(=O)NS(=O)(=O)c1sc(CC(C)C)cc1-c1ccc(Cn2ccnc2)cc1` ?
Reply: inactive

Ask: Could you share which outcome value was measured for `Cc1nc(C#Cc2ccnc(Cl)c2)c(C)n1-c1ccc(OC(F)(F)F)cc1` ?
Reply: inactive

Ask: Could you share which outcome value was measured for `CC(C)(O)c1ccn2c(-c3ccc(F)c(-c4ccc(F)cc4C#N)c3)cnc2c1F` ?
Reply: inactive

###

Tested on: CRL-7250
Assay info: Cytotoxic Profiling of Annotated Libraries Using Quantitative High-Throughput Screening (AID 1296008); also: nearly all actives have a fitted effect of over 60% in size; as to max response: % is scaled to controls: 0 for no effect and ±100 for the full control effect
Condition description: Five cell lines viability, CellTiter-Glo ATP luminescence, 48-72 h; hits give low values
Results filed as inconclusive are left out.
Property label: max response (%)
Could you give me the number in %? Just the number is fine.

{"Molecule": "CC(=O)O[C@@H]1C[C@@]23C[C@@]24CC[C@H](O[C@@H]2OC[C@H](O)[C@H](O)[C@H]2O)C(C)(C)[C@@H]4CC[C@H]3[C@]2(C)[C@@H](O)C34O[C@H](C[C@@H](C)[C@@H]3[C@@]12C)[C@@H](C(C)(C)O)O4", "max response, %": 4.08}
{"Molecule": "CC(C)(C)Sc1c(CC(C)(C)C(=O)O)n(Cc2ccc(Cl)cc2)c2ccc(OCc3ccc4ccccc4n3)cc12", "max response, %": -0.604}
{"Molecule": "CC1=CC2/C=C(\\C)CCC3OC(C)(C)OC3CCC(=O)C23C(=O)NC(CC(C)C)C3C1C (stereo unspecified)", "max response, %": 4.29}
{"Molecule": "Nc1nc(O)c(C2=C3C(=Nc4ccccc43)C(=O)NCC2)[nH]1", "max response, %": -2.87}
{"Molecule": "O=C(NS(=O)(=O)c1ccc(Br)s1)c1ccc(Cl)cc1Cl", "max response, %": -22.3}

Consider now this further molecule.
Ask: Could you share which max response value was measured for C/C=C(/C)C(=O)O[C@@H]1C[C@@H](OC(=O)CC(C)C)C2(C)C3C(=O)C=C(C)C2C3C1(C)C (stereo partly specified) ?
Reply: 0.438

###

System: SKOV3
Assay info: Primary qHTS to identify gynecologic anti-cancer compounds using libraries of approved drugs and bioactive compounds (AID 1345084); also: nearly all actives have a fitted effect of over 55% in size
Condition description: Gynecologic cancer cell panel viability, ATPlite luminescence, 48 h; series mostly up to 57.5 µM
Results filed as inconclusive are left out. Calls of active or inactive are those of the source. Calls come from the whole dose curve; as a rule, active = well fitted cell-killing curve with a large enough effect; inconclusive = small, poorly fitted or top-dose-only effect, or effect the other way; inactive = flat fitted curve, though single readings scatter.
// one of active, inactive, no free text

{"Compound": "CC1(C)CN(C(=O)c2ccc(-c3cccc4nc(NC(=O)C5CC5)nn34)cc2)C1", "Group label": "inactive"}
{"Compound": "COc1ccnc(CS(=O)c2nc3cc(OC(F)F)ccc3[nH]2)c1OC (stereo unspecified)", "Group label": "inactive"}

Ask: Which result was noted for this compound in the test: `CCOC(=O)c1cnn(-c2ccccc2)c1NC(=O)c1cc2nc(-c3ccco3)cc(C(F)(F)Cl)n2n1`
Reply: inactive

Ask: Which result was noted for this compound in the test: `CN(C)S(=O)(=O)c1ccc(NC(=S)N2CCC(C(O)(c3ccccc3)c3ccccc3)CC2)cc1`
Reply: inactive

Ask: Which result was noted for this compound in the test: `CCNC(=O)C#Cc1ccc2c(C(=Nc3ccc(CN(C)C)cc3)c3ccccc3)c(O)[nH]c2c1`
Reply: active

Ask: Which result was noted for this compound in the test: `CC(C)(C)OC(=O)c1ncn2c1C(C)(C)Nc1ccccc1-2`
Reply: inactive

Ask: Which result was noted for this compound in the test: C[C@@H]1C[C@H]2O[C@@]3(O[C@@H]2C(C)(C)O)C(O)[C@@]2(C)C4CCC5C(C)(C)[C@@H](O[C@H]6OC[C@H](O)[C@@H](O)[C@@H]6O)CC[C@@]56C[C@@]46CC[C@]2(C)C13 (stereo partly specified)
Reply: inactive

Ask: Which result was noted for this compound in the test: `CC[C@@H](Nc1c(Nc2cccc(C(=O)N(C)C)c2O)c(=O)c1=O)c1cc(C(C)C)co1`
Reply: inactive

Ask: Which result was noted for this compound in the test: `Cc1[nH]c(/C=C2\C(=O)Nc3ccc(S(=O)(=O)N(C)c4cccc(Cl)c4)cc32)c(C)c1C(=O)N1CCN(C)CC1`
Reply: inactive

Ask: Which result was noted for this compound in the test: `COc1cc2ncnc(Nc3ccc(F)c(Cl)c3)c2cc1O`
Reply: inactive

Ask: Which result was noted for this compound in the test: COC1CC(=O)C23C(=O)NC(Cc4c[nH]c5ccccc45)C2C(C)C2(C)OC2C3/C=C/CC(C)CC1O (stereo unspecified)
Reply: active

Ask: Which result was noted for this compound in the test: `COc1cc(NC(=O)c2cc(C3CC3)on2)c(OC)cc1Cl`
Reply: inactive

Ask: Which result was noted for this compound in the test: `CN(C)C(=O)Nc1cc(-c2ccccc2)ccc1N(C)C`
Reply: inactive

Ask: Which result was noted for this compound in the test: Nc1nc2c(ncn2C2OC3COP(=O)(O)OC3C2O)c(=O)[nH]1 (stereo unspecified)
Reply: inactive

Ask: Which result was noted for this compound in the test: `O=C(NCCN1CCC(n2c(=O)[nH]c3ccccc32)CC1)c1ccc2ccccc2c1`
Reply: inactive

###

Tested on: NIH3T3
Assay info: Cytotoxic Profiling of Annotated Libraries Using Quantitative High-Throughput Screening (AID 1296008); also: nearly all actives have a fitted effect of over 60% in size
Condition description: Five cell lines viability, CellTiter-Glo ATP luminescence, 48-72 h
Results filed as inconclusive are left out. Active and inactive are the calls of the source. Calls come from the whole dose curve; as a rule, active = well fitted inhibition curve with a large enough effect; inconclusive = small, poorly fitted or top-dose-only effect; inactive = flat fitted curve, though single readings scatter.
// one of label 1 for active, label 0 for inactive, no free text

Worked set:
{"Compound": "CCOc1cc(C(C)(C)C)ccc1C1=N[C@@](C)(c2ccc(Cl)cc2)[C@@](C)(c2ccc(Cl)cc2)N1C(=O)N1CCN(CC(=O)N2CCOCC2)CC1", "Group label": "label 1"}
{"Compound": "O=S(=O)(N[C@H]1CCCC[C@@H]1N1CCOCC1)c1ccc(Cl)cc1", "Group label": "label 0"}
{"Compound": "CCS(=O)c1nc(-c2cccc(OCc3ccccc3)c2)cc(C(F)(F)F)n1 (stereo not given)", "Group label": "label 1"}

Ask: Which result was noted for this compound in the test: `Fc1ccc2c(CCNCc3cccc(OCC(F)(F)C(F)F)c3)c[nH]c2c1`
Reply: label 0

Ask: Which result was noted for this compound in the test: `COc1cc2ncnc(Nc3ccc(O)c(Br)c3)c2cc1OC`
Reply: label 1

Ask: Which result was noted for this compound in the test: CC(=O)C1=CCC2C3CC=C4CC(O)CC(O)C4(C)C3C(O)CC12C (stereo not given)
Reply: label 0

Ask: Which result was noted for this compound in the test: `N#Cc1cc(C2=Nc3ccc(Br)cc3NC(=O)C2)ccn1`
Reply: label 0

Ask: Which result was noted for this compound in the test: `Cn1cc(-c2ccc(S(=O)(=O)n3ccc(/C=C/C(=O)Nc4ccccc4N)c3)cc2)cn1`
Reply: label 1

Ask: Which result was noted for this compound in the test: `Cc1ccc(O)cc1Nc1ccnc(Nc2cccc(C(N)=O)c2)n1`
Reply: label 1

Ask: Which result was noted for this compound in the test: `C[C@@H](Nc1ncnc2[nH]c(-c3ccc(O)cc3)cc12)c1ccccc1`
Reply: label 1

###

System: HaCat
Assay info: Cytotoxic Profiling of Annotated Libraries Using Quantitative High-Throughput Screening (AID 1296008); also: nearly all actives have a fitted effect of over 60% in size; as to max response: % is scaled to controls: 0 for no effect and ±100 for the full control effect
Condition description: Five cell lines viability, CellTiter-Glo ATP luminescence, 48-72 h; hits give low values
Inconclusive results are not listed.
# key: entry, value: max response
Could you give me the number in %? Just the number is fine.

Observe how each entry below is paired with its result.
{"Compound": "CC(C)C[C@H](CO)Nc1nc(S[C@@H](C)c2ccccc2)nc2nc(N)sc12", "Numeric readout": -4.79}
{"Compound": "O=C(Nc1ccc2[nH]c(=O)oc2c1)C(=O)N1CCC(Cc2ccc(F)cc2)CC1", "Numeric readout": 4.96}
{"Compound": "O=C(c1ccc(F)cc1)N1CCCC(c2nc(-c3ccc(F)cc3)no2)C1 (stereo not drawn)", "Numeric readout": -5.25}

Ask: Could you share which max response value was measured for `Cc1cc(-c2cc(OC(=O)c3ccccc3)ccc2Cl)cc2nnc(Nc3ccc(OCCN4CCCC4)cc3)nc12` ?
Reply: 3.59

Ask: Could you share which max response value was measured for `CC(=O)OC/C(=C/C(=O)O)CC[C@@H]1C(C=O)=CC[C@@H]2C(C)(C)CCC[C@@]12C` ?
Reply: 3.05

Ask: Could you share which max response value was measured for `COc1cc(OC)c2c(=O)[nH]c(-c3cc(C)c(OCCO)c(C)c3)nc2c1` ?
Reply: 1.79
